tgt: UniProtKB P53341
method.summary: In vitro α-glucosidase inhibition (p-NPG substrate)
condition.label: read-out: α-Glucosidase Inhibition (%)
// values below are reported inhibition at 64 µg/mL
result.type: inhibition at 64 µg/mL (%)

* C[C@@H]1O[C@@H](OC[C@H]2O[C@@H](Oc3c(-c4ccc(O)c(O)c4)oc4cc(O)cc(O)c4c3=O)[C@H](O)[C@@H](O)[C@@H]2O)[C@H](O)[C@H](O)[C@H]1O | 82.5
* COc1ccc2c(c1)OC[C@H]1c3cc4c(cc3O[C@@H]21)OCO4 | 12
* COc1cc(/C=C/CO)cc(OC)c1O[C@@H]1O[C@H](CO)[C@@H](O)[C@H](O)[C@H]1O | 9
* C[C@@H]1CC[C@]2(C(=O)O[C@@H]3O[C@H](CO)[C@@H](O)[C@H](O)[C@H]3O)CC[C@]3(C)C(=CC[C@@H]4[C@@]5(C)CC[C@H](O)[C@@](C)(CO)[C@@H]5CC[C@]43C)[C@@H]2[C@]1(C)O [Compound 3, pedunculoside] | 32
* CC(C)=CCC[C@](C)(O[C@@H]1O[C@H](CO[C@@H]2O[C@H](CO)[C@@H](O)[C@H](O)[C@H]2O)[C@@H](O)[C@H](O)[C@H]1O)[C@H]1CC[C@]2(C)[C@@H]1[C@H](O)C[C@@H]1[C@@]3(C)CC[C@H](O[C@@H]4O[C@H](CO)[C@@H](O)[C@H](O)[C@H]4O)C(C)(C)[C@@H]3CC[C@]12C [Compound 6, gypenoside XVII] | 21
* O=c1c(-c2ccc(O)cc2)coc2cc(O[C@@H]3O[C@H](CO)[C@@H](O)[C@H](O)[C@H]3O)ccc12 | 10
* C[C@H]1[C@H](C)CC[C@]2(C(=O)O)CC[C@]3(C)C(=CC[C@@H]4[C@@]5(C)CC[C@H](O)C(C)(C)[C@@H]5CC[C@]43C)[C@H]12 | 98
* C[C@H]1C(=O)CC[C@@H]2[C@]1(C)CC[C@H]1[C@@]2(C)CC[C@@]2(C)[C@@H]3CC(C)(C)CC[C@]3(C)CC[C@]12C | 20
* C[C@@H]1CC[C@]2(C(=O)O)CC[C@]3(C)C(=CC[C@@H]4[C@@]5(C)CC[C@H](O)[C@@](C)(CO)[C@@H]5CC[C@]43C)[C@@H]2[C@]1(C)O | 4
* C[C@H]1O[C@H](O[C@H]2[C@H](O)[C@@H](O)[C@@H](O[C@H]3[C@H](O)[C@@H](O)C(O)O[C@@H]3CO)O[C@@H]2CO)[C@H](O)[C@@H](O)[C@@H]1N[C@H]1C=C(CO)[C@@H](O)[C@H](O)[C@H]1O (stereo partly shown) [acarbose, reference compound] | 23

----------
tgt: UniProtKB P22303
Sequence (P22303 32-614): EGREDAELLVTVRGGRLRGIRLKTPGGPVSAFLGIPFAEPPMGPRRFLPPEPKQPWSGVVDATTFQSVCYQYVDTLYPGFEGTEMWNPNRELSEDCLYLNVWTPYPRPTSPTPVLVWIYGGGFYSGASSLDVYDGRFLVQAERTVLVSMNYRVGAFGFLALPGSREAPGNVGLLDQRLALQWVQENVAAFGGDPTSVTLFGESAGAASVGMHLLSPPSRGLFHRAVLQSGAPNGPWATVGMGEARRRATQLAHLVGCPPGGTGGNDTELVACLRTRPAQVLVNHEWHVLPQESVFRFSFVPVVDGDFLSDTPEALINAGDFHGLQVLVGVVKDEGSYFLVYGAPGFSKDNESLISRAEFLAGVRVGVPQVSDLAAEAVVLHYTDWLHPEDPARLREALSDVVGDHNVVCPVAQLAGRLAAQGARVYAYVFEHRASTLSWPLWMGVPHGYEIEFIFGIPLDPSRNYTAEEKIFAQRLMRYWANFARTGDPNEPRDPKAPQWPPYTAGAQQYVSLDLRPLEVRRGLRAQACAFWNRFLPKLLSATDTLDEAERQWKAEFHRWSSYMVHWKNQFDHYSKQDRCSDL
method.summary: biochemical
pIC50: −log10 of the molar value.
// values below are reported pIC50
result.type: pIC50

* C[C@@H]1CC[C@]2(C(=O)O[C@@H]3O[C@H](CO)[C@@H](O)[C@H](O)[C@H]3O)CC[C@]3(C)C(=CC[C@@H]4[C@@]5(C)CC[C@H](O)[C@@](C)(CO)[C@@H]5CC[C@]43C)[C@@H]2[C@]1(C)O [Compound 3, pedunculoside] | < 3.41
* O=c1c(-c2ccc(O)cc2)coc2cc(O[C@@H]3O[C@H](CO)[C@@H](O)[C@H](O)[C@H]3O)ccc12 | < 3.21
* C[C@H]1C(=O)CC[C@@H]2[C@]1(C)CC[C@H]1[C@@]2(C)CC[C@@]2(C)[C@@H]3CC(C)(C)CC[C@]3(C)CC[C@]12C | < 3.22
* C[C@@H]1O[C@@H](OC[C@H]2O[C@@H](Oc3c(-c4ccc(O)c(O)c4)oc4cc(O)cc(O)c4c3=O)[C@H](O)[C@@H](O)[C@@H]2O)[C@H](O)[C@H](O)[C@H]1O | 3.38
* C[C@H]1[C@H](C)CC[C@]2(CO)CC[C@]3(C)C(=CC[C@@H]4[C@@]5(C)CC[C@H](O)C(C)(C)[C@@H]5CC[C@]43C)[C@H]12 | < 3.24
* COc1cc(/C=C/CO)cc(OC)c1O[C@@H]1O[C@H](CO)[C@@H](O)[C@H](O)[C@H]1O | < 3.16
* CC(C)=CCC[C@](C)(O[C@@H]1O[C@H](CO[C@@H]2O[C@H](CO)[C@@H](O)[C@H](O)[C@H]2O)[C@@H](O)[C@H](O)[C@H]1O)[C@H]1CC[C@]2(C)[C@@H]1[C@H](O)C[C@@H]1[C@@]3(C)CC[C@H](O[C@@H]4O[C@H](CO)[C@@H](O)[C@H](O)[C@H]4O)C(C)(C)[C@@H]3CC[C@]12C [Compound 6, gypenoside XVII] | < 3.57

----------
tgt: α-glucosidase from Saccharomyces cerevisiae (Saccharomyces cerevisiae, UniProt P53341)
Sequence (P53341 whole entry): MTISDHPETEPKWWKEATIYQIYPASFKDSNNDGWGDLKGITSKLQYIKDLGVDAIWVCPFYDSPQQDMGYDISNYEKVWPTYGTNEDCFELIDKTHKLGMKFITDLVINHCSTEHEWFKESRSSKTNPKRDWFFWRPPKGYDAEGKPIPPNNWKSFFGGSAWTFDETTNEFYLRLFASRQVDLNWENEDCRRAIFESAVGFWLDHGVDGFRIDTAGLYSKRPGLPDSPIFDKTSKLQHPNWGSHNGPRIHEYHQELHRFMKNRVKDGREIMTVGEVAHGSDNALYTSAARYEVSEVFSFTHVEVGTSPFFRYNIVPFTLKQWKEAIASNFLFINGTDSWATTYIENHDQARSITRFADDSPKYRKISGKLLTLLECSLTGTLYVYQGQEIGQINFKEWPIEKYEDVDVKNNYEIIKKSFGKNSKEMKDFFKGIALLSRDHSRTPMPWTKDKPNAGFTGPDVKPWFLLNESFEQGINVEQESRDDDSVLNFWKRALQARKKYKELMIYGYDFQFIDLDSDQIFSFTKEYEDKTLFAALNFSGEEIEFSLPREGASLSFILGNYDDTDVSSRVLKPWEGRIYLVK
method.summary: In vitro α-glucosidase inhibition (p-NPG substrate)
condition.label: read-out: α-Glucosidase Inhibition (%)
result.type: inhibition at 1 µg/mL (%)

• C[C@@H]1O[C@@H](OC[C@H]2O[C@@H](Oc3c(-c4ccc(O)c(O)c4)oc4cc(O)cc(O)c4c3=O)[C@H](O)[C@@H](O)[C@@H]2O)[C@H](O)[C@H](O)[C@H]1O = 34.5
• C[C@H]1O[C@H](O[C@H]2[C@H](O)[C@@H](O)[C@@H](O[C@H]3[C@H](O)[C@@H](O)C(O)O[C@@H]3CO)O[C@@H]2CO)[C@H](O)[C@@H](O)[C@@H]1N[C@H]1C=C(CO)[C@@H](O)[C@H](O)[C@H]1O (stereo partly shown) [acarbose, reference compound] = 0
• C[C@H]1[C@H](C)CC[C@]2(C(=O)O)CC[C@]3(C)C(=CC[C@@H]4[C@@]5(C)CC[C@H](O)C(C)(C)[C@@H]5CC[C@]43C)[C@H]12 = 48.5
• O=c1c(-c2ccc(O)cc2)coc2cc(O[C@@H]3O[C@H](CO)[C@@H](O)[C@H](O)[C@H]3O)ccc12 = 0
• C[C@H]1C(=O)CC[C@@H]2[C@]1(C)CC[C@H]1[C@@]2(C)CC[C@@]2(C)[C@@H]3CC(C)(C)CC[C@]3(C)CC[C@]12C = 1
• COc1ccc2c(c1)OC[C@H]1c3cc4c(cc3O[C@@H]21)OCO4 = 0
• C[C@@H]1CC[C@]2(C(=O)O[C@@H]3O[C@H](CO)[C@@H](O)[C@H](O)[C@H]3O)CC[C@]3(C)C(=CC[C@@H]4[C@@]5(C)CC[C@H](O)[C@@](C)(CO)[C@@H]5CC[C@]43C)[C@@H]2[C@]1(C)O [Compound 3, pedunculoside] = 1
• C[C@@H]1CC[C@]2(C(=O)O)CC[C@]3(C)C(=CC[C@@H]4[C@@]5(C)CC[C@H](O)[C@@](C)(CO)[C@@H]5CC[C@]43C)[C@@H]2[C@]1(C)O = 1
• COc1cc(/C=C/CO)cc(OC)c1O[C@@H]1O[C@H](CO)[C@@H](O)[C@H](O)[C@H]1O = 0
• CC(C)=CCC[C@](C)(O[C@@H]1O[C@H](CO[C@@H]2O[C@H](CO)[C@@H](O)[C@H](O)[C@H]2O)[C@@H](O)[C@H](O)[C@H]1O)[C@H]1CC[C@]2(C)[C@@H]1[C@H](O)C[C@@H]1[C@@]3(C)CC[C@H](O[C@@H]4O[C@H](CO)[C@@H](O)[C@H](O)[C@H]4O)C(C)(C)[C@@H]3CC[C@]12C [Compound 6, gypenoside XVII] = 1

----------
tgt: α-glucosidase from Saccharomyces cerevisiae (Saccharomyces cerevisiae, UniProt P53341)
method.summary: In vitro α-glucosidase inhibition (p-NPG substrate);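 note: yeast α-glucosidase at 0.2 U/mL with p-nitrophenyl α-D-glucopyranoside substrate in 100 mM potassium phosphate pH 6.8, product read by absorbance at 410 nm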
condition.label: read-out: α-Glucosidase Inhibition (%)
// values below are reported inhibition at 16 µg/mL
result.type: inhibition at 16 µg/mL (%)

* COc1cc(/C=C/CO)cc(OC)c1O[C@@H]1O[C@H](CO)[C@@H](O)[C@H](O)[C@H]1O | 8
* C[C@@H]1CC[C@]2(C(=O)O)CC[C@]3(C)C(=CC[C@@H]4[C@@]5(C)CC[C@H](O)[C@@](C)(CO)[C@@H]5CC[C@]43C)[C@@H]2[C@]1(C)O | 1
* C[C@H]1C(=O)CC[C@@H]2[C@]1(C)CC[C@H]1[C@@]2(C)CC[C@@]2(C)[C@@H]3CC(C)(C)CC[C@]3(C)CC[C@]12C | 13
* CC(C)=CCC[C@](C)(O[C@@H]1O[C@H](CO[C@@H]2O[C@H](CO)[C@@H](O)[C@H](O)[C@H]2O)[C@@H](O)[C@H](O)[C@H]1O)[C@H]1CC[C@]2(C)[C@@H]1[C@H](O)C[C@@H]1[C@@]3(C)CC[C@H](O[C@@H]4O[C@H](CO)[C@@H](O)[C@H](O)[C@H]4O)C(C)(C)[C@@H]3CC[C@]12C [Compound 6, gypenoside XVII] | 17
* C[C@@H]1O[C@@H](OC[C@H]2O[C@@H](Oc3c(-c4ccc(O)c(O)c4)oc4cc(O)cc(O)c4c3=O)[C@H](O)[C@@H](O)[C@@H]2O)[C@H](O)[C@H](O)[C@H]1O | 78
* O=c1c(-c2ccc(O)cc2)coc2cc(O[C@@H]3O[C@H](CO)[C@@H](O)[C@H](O)[C@H]3O)ccc12 | 4
* C[C@H]1O[C@H](O[C@H]2[C@H](O)[C@@H](O)[C@@H](O[C@H]3[C@H](O)[C@@H](O)C(O)O[C@@H]3CO)O[C@@H]2CO)[C@H](O)[C@@H](O)[C@@H]1N[C@H]1C=C(CO)[C@@H](O)[C@H](O)[C@H]1O (stereo partly shown) [acarbose, reference compound] | 18
* COc1ccc2c(c1)OC[C@H]1c3cc4c(cc3O[C@@H]21)OCO4 | 3
* C[C@H]1[C@H](C)CC[C@]2(C(=O)O)CC[C@]3(C)C(=CC[C@@H]4[C@@]5(C)CC[C@H](O)C(C)(C)[C@@H]5CC[C@]43C)[C@H]12 | 95
* C[C@@H]1CC[C@]2(C(=O)O[C@@H]3O[C@H](CO)[C@@H](O)[C@H](O)[C@H]3O)CC[C@]3(C)C(=CC[C@@H]4[C@@]5(C)CC[C@H](O)[C@@](C)(CO)[C@@H]5CC[C@]43C)[C@@H]2[C@]1(C)O [Compound 3, pedunculoside] | 9.5
